System: Staphylococci Russell
Experiment: Antibacterial activity of alkylidene-penems (MIC)
Format: cell-based
Settings: compound alone
This listing pairs compounds with measured MIC.
Lab book: enter the figure in µg/mL, no units written.

- COMPOUND: "O=C(O)C1=CSC2/C(=C/c3ccoc3)C(=O)N12 (racemic) [Example 12b]"
  EXPERIMENTAL SYSTEM: "Staphylococci Russell"
  MIC, µg/mL: 50
- COMPOUND: "O=C(O)C1=CSC2/C(=C\\c3ccc(Br)o3)C(=O)N12 (racemic) [Example 11b]"
  EXPERIMENTAL SYSTEM: "Staphylococci Russell"
  MIC, µg/mL: 50
- COMPOUND: "O=C(O)C1=CSC2/C(=C/c3ccco3)C(=O)N12 (racemic)"
  EXPERIMENTAL SYSTEM: "Staphylococci Russell"
  MIC, µg/mL: 125
- COMPOUND: "O=C(O)C1=CSC2/C(=C\\c3ccsc3)C(=O)N12 (racemic)"
  EXPERIMENTAL SYSTEM: "Staphylococci Russell"
  MIC, µg/mL: 12.5
- COMPOUND: "O=C(O)C1=CSC2/C(=C\\c3ccco3)C(=O)N12 (racemic)"
  EXPERIMENTAL SYSTEM: "Staphylococci Russell"
  MIC, µg/mL: 16.0

QUERY: # input compound: CCSC1=C(C(=O)O)N2C(=O)/C(=C/c3ccc(COC(C)=O)o3)C2S1 (racemic) ; wanted: its MIC
RESULT: 12.5

QUERY: O=C(O)C1=C(SCCO)SC2/C(=C\c3ccco3)C(=O)N12 (racemic) ?
RESULT: 12.5

QUERY: O=C(O)C1=CSC2/C(=C\c3cccs3)C(=O)N12 (racemic) ?
RESULT: 50

QUERY: CCSC1=C(C(=O)O)N2C(=O)/C(=C/c3ccco3)C2S1 (racemic) ?
RESULT: 10.0

====

Test system: Staphylococci Oxford
Assay: Antibacterial activity of alkylidene-penems (MIC)
Format: cell-based
Conditions: compound alone
ENDPOINT NAME: MIC (µg/mL)
Lab book: enter the figure in µg/mL, no units written.

- COMPOUND: "O=C(O)C1=CSC2/C(=C\\c3ccsc3)C(=O)N12 (racemic)"
  ENDPOINT NAME: "MIC"
  QUANTITATIVE READOUT: 50
- COMPOUND: "O=C(O)C1=C(SCCO)SC2/C(=C\\c3ccco3)C(=O)N12 (racemic)"
  ENDPOINT NAME: "MIC"
  QUANTITATIVE READOUT: 12.5
- COMPOUND: "O=C(O)C1=CSC2/C(=C/c3ccco3)C(=O)N12 (racemic)"
  ENDPOINT NAME: "MIC"
  QUANTITATIVE READOUT: 62
- COMPOUND: "O=C(O)C1=CSC2/C(=C\\c3cccs3)C(=O)N12 (racemic)"
  ENDPOINT NAME: "MIC"
  QUANTITATIVE READOUT: 100

Attention now shifts to the item below.
QUERY: # input compound: CCSC1=C(C(=O)O)N2C(=O)/C(=C/c3ccc(COC(C)=O)o3)C2S1 (racemic) ; wanted: its MIC
RESULT: 3.1

Each recorded value in this set is attributed to patent EP0120613A1.
